- TGT: T1, UL128/UL131A co-expressed from MVA in BHK-21 cells (human cytomegalovirus, UniProt P16837 28-171; F5HET4 19-129)
- T1 construct: whole, on cells
- PROCEDURE_DETAILS: intracellular FC, MVA-infected BHK-21
OBSERVABLE: binding result

BINDER	OBSERVABLE	VALUE_REPORTED
2-80 (antibody, V domains shown, also called NAb 2-80) VH: QIQLVQSGPELKKPGETVKISCKASGYTFTNFGMNWVKQAPGKGLKWMGWINTYTGEPTYADDFKGRFAFSLETSASTASLQINNLKNEDTATYFCARRGDGLYSMDYWGQGTSVTVSS VL: DIVLTQSPASLAVSLGQRATISCRASESIDSYGNSFMYWYQQKPGQPPKLLIYRASNLESGIPARFSGSGSRTDFTLTINPVEADDVATYYCQQSNEDPLTFGAGTKLELK	binding result	no binding
18F10 (antibody, V domains shown, also called NAb 18F10) VH: QVTLKESGPGILQPSQTLSLTCSFSGFSLSTYGIGIGWIRQPSGKGLEWLAHIWWNDNKNYNTALKSRLTISKDPSNNQVFLKIASVDTADTATYFCARTGYFDVWGAGTTVTVSS VL: DVVLTQTPLSLPVSLGDQVSISCSSSQSLVHSNGNTYIHWYLQKPGQSPKLLIYTVSNRFSGVPDRFSGSGSGTDFTLKISRVEAEDLGLYFCSQSTHVPYTFGGGTKLEIK	binding result	no binding
54E11 (antibody, V domains shown, also called NAb 54E11) VH: QIQLVQSGPELKKPGETVKISCKASGYTFTSYGMNWVKQAPGKGLKWMGWINTYTGEPTYADDFKGRFAFSLETSASTAYLQINNLKNEDTATYFCAREHYYGINPLLGCWGQGTTLTVSS VL: DIQMTQTTSSLSASLGDRVTISCSASQGISNYLNWYQQKPDGTVKLLIYDTSSLHSGVPSRFSGSGSGTDYSLTISNLEPEDIATYYCQQYSKLPYTFGGGTKLEIK	binding result	no binding

The measurements presented in this section are drawn from patent US20180230200A1.
